- Subject Of Test: MSH2 dMBD2;MSH6 WT (MutSα) (human;human, UniProt P43246;P52701 125-934;1-1360, |)
- Experiment Notes: SPR
Measurement Kind: Kd (nM)
Give your result in nM as a bare value.

Which value of Kd has been reported for 21 bp GT mismatch (SPR) (dsDNA) DNA 1: TTTTTTTTTTTTTTTTTTTTAGTCGCCAGGGACCAGTGTCA DNA 2: TGACACTGGTCTCTGGCGACT in the records?
16.4
